Attribute: pIC50
target: human kinase Mps-1 (Homo sapiens); construct: N-terminally GST-tagged human full length recombinant Mps-1 kinase; GST (N); test: Mps-1 kinase assay (TR-FRET); conditions: Mps-1 TR-FRET kinase assay; avg; read-out: Mps1 avg (IC50 [mol/l])
Sequence (P33981 whole entry): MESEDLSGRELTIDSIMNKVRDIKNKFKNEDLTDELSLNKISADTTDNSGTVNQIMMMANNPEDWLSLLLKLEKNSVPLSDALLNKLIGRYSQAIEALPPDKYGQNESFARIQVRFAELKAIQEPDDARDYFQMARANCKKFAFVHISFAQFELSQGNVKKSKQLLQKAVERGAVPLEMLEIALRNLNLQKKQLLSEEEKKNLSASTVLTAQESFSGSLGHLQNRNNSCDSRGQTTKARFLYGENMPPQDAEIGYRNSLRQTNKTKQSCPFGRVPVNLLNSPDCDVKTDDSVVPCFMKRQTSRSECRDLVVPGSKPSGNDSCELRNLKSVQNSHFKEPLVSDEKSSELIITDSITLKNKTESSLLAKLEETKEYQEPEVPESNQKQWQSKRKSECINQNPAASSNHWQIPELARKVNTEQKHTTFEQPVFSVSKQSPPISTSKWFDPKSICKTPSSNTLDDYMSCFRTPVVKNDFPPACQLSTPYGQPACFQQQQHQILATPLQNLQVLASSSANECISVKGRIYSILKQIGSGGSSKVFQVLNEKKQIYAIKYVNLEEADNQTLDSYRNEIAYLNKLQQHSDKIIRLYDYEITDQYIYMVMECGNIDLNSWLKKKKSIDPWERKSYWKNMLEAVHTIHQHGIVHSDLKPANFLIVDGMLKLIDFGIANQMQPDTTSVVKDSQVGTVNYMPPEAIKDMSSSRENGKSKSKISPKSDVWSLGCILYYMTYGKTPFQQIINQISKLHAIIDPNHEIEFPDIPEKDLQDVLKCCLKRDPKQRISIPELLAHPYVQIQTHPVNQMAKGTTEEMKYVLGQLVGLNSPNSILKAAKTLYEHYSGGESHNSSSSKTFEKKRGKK
pIC50: −log10 of the molar value.
ENDPOINT_LABEL: pIC50

[[record]]
compound = "Cc1nsc(Nc2ccc(C#N)cn2)c1C(=O)Nc1cccc(C(=O)NC2CC2)c1"
endpoint_label = "pIC50"
reported = "< 4.70"

[[record]]
compound = "Cc1nsc(Nc2cnc(C(F)(F)F)cn2)c1C(=O)Nc1ccc(F)c(OCC2CCN(C(CF)CF)C2)c1 (stereo not shown)"
endpoint_label = "pIC50"
reported = "≤ 4.70"

[[record]]
compound = "Cc1nsc(Nc2ccc(C#N)cn2)c1C(=O)Nc1ccc(OC2CCCN(C(=O)OC(C)(C)C)C2)nc1 (stereo not shown)"
endpoint_label = "pIC50"
reported = "≤ 4.70"

[[record]]
compound = "Cc1nsc(Nc2cnc3ccccc3n2)c1C(=O)Nc1cccc(C(=O)NC(C)(C)C)c1"
endpoint_label = "pIC50"
reported = "≤ 4.70"

[[record]]
compound = "Cc1nsc(Nc2cnc(C(F)(F)F)cn2)c1C(=O)Nc1ccc(OCC2CCCN(CC(F)(F)F)C2)nc1 (stereo not shown)"
endpoint_label = "pIC50"
reported = "≤ 4.70"

[[record]]
compound = "Cc1nsc(Nc2cnc3ccccc3n2)c1C(=O)Nc1ccc(C(=O)NC2CN(C(=O)OC(C)(C)C)CC(F)(F)C2)cc1 (stereo not shown)"
endpoint_label = "pIC50"
reported = "< 4.70"

[[record]]
compound = "CCN1CCN(C(=O)c2ccc(NC(=O)c3c(C)nsc3Nc3cncc(C(F)(F)F)n3)cc2)CC1"
endpoint_label = "pIC50"
reported = "< 4.70"

[[record]]
compound = "Cc1nsc(Nc2cnc(C(F)(F)F)cn2)c1C(=O)Nc1ccc(O[C@@H]2CCN(CCC(F)(F)F)C[C@@H]2F)nc1"
endpoint_label = "pIC50"
reported = "< 4.70"

[[record]]
compound = "Cc1nsc(Nc2cncc(C(F)(F)F)n2)c1C(=O)Nc1ccc(OCC2CCN(C(=O)OC(C)(C)C)CC2)nc1"
endpoint_label = "pIC50"
reported = "< 4.70"

[[record]]
compound = "CC(=O)Nc1ccc(NC(=O)c2c(C)nsc2Nc2ccc(C#N)cn2)cn1"
endpoint_label = "pIC50"
reported = "< 4.70"

[[record]]
compound = "CNS(=O)(=O)c1ccc(NC(=O)c2c(C)nsc2Nc2cnc3ccccc3n2)cc1"
endpoint_label = "pIC50"
reported = "≤ 4.70"

[[record]]
compound = "Cc1nsc(Nc2cnc(C(F)(F)F)cn2)c1C(=O)Nc1ccc(OCCN2CCC(F)(F)CC2)nc1"
endpoint_label = "pIC50"
reported = "< 4.70"

[[record]]
compound = "Cc1nsc(Nc2cnc(C(F)(F)F)cn2)c1C(=O)Nc1ccc(OCC2CCN(CCF)CC2)nc1"
endpoint_label = "pIC50"
reported = "< 4.70"

[[record]]
compound = "Cc1nsc(Nc2cnc(C(F)(F)F)cn2)c1C(=O)Nc1ccc(N2CCN(CC(F)(F)F)CC2)cn1"
endpoint_label = "pIC50"
reported = "< 4.70"

[[record]]
compound = "COC(=O)c1cccc(NC(=O)c2c(C)nsc2Nc2cnc3ccccc3n2)c1"
endpoint_label = "pIC50"
reported = 5.60

[[record]]
compound = "Cc1nsc(Nc2cnc(C(F)(F)F)cn2)c1C(=O)Nc1ccc(F)c(OC2CCN(CCF)CC2)c1"
endpoint_label = "pIC50"
reported = "< 4.70"

[[record]]
compound = "Cc1nsc(Nc2cnc3ccccc3n2)c1C(=O)Nc1ccccc1S(C)(=O)=O"
endpoint_label = "pIC50"
reported = "< 4.70"

[[record]]
compound = "CCN1CC[C@@H](Oc2ccc(NC(=O)c3c(C)nsc3Nc3cnc(C(F)(F)F)cn3)cn2)[C@H](F)C1"
endpoint_label = "pIC50"
reported = "< 4.70"

[[record]]
compound = "Cc1nsc(Nc2cc(C#N)ccn2)c1C(=O)Nc1ccc(NC(=O)OC(C)(C)C)cc1"
endpoint_label = "pIC50"
reported = "< 4.70"

[[record]]
compound = "Cc1nsc(Nc2cnc(C(F)(F)F)cn2)c1C(=O)Nc1ccc(OCCN(C)CCF)nc1"
endpoint_label = "pIC50"
reported = "≤ 4.70"

[[record]]
compound = "Cc1nsc(Nc2cnc3ccccc3n2)c1C(=O)Nc1ccc(OC2CCN(C(=O)OC(C)(C)C)CC2)nc1"
endpoint_label = "pIC50"
reported = "≤ 4.70"

[[record]]
compound = "Cc1nsc(Nc2cnc(C(F)(F)F)cn2)c1C(=O)Nc1ccc(F)c(OC2CCN(C(=O)OC(C)(C)C)CC2)c1"
endpoint_label = "pIC50"
reported = "< 4.70"

[[record]]
compound = "Cc1nsc(Nc2cnc(C(F)(F)F)cn2)c1C(=O)Nc1ccc(O[C@@H]2CCN(CCC(F)(F)F)C[C@H]2F)nc1"
endpoint_label = "pIC50"
reported = "< 4.70"

[[record]]
compound = "COC(=O)c1cc(NC(=O)c2c(C)nsc2Nc2cnc3ccccc3n2)cc(C(=O)OC)c1"
endpoint_label = "pIC50"
reported = "< 4.70"

[[record]]
compound = "Cc1nsc(Nc2ccc(C#N)cn2)c1C(=O)Nc1ccc(S(C)(=O)=O)cc1"
endpoint_label = "pIC50"
reported = "< 4.70"

[[record]]
compound = "Cc1nsc(Nc2ccc(C#N)cn2)c1C(=O)Nc1cccc(C(=O)OC(C)(C)C)c1"
endpoint_label = "pIC50"
reported = "< 4.70"

[[record]]
compound = "Cc1nsc(Nc2cnc3ccccc3n2)c1C(=O)Nc1cccc(C(=O)OC(C)(C)C)c1"
endpoint_label = "pIC50"
reported = "≤ 4.70"

[[record]]
compound = "Cc1nsc(Nc2cnc3ccccc3n2)c1C(=O)Nc1ccc(OC2CCN(CC(F)F)CC2)nc1"
endpoint_label = "pIC50"
reported = "≤ 4.70"

[[record]]
compound = "Cc1nsc(Nc2cncc(C(F)(F)F)n2)c1C(=O)Nc1ccc(OCCN(C)C(=O)OC(C)(C)C)nc1"
endpoint_label = "pIC50"
reported = "< 4.70"

[[record]]
compound = "Cc1nsc(Nc2cnc(C(F)(F)F)cn2)c1C(=O)Nc1ccc(N2CCN(CC(F)F)CC2)cn1"
endpoint_label = "pIC50"
reported = "< 4.70"

[[record]]
compound = "Cc1nsc(Nc2ccc(C#N)cn2)c1C(=O)Nc1ccc(OC2CCCN(CC(F)F)C2)nc1 (stereo not shown)"
endpoint_label = "pIC50"
reported = "≤ 4.70"

